B1: CPEB3 Ribozyme (parent)
chain: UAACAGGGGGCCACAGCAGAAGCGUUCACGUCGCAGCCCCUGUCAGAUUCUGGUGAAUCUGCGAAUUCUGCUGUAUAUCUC

# Variants of: B1
# Method: self-cleavage, relative activity (ratio to wild type); higher = more cleavage; in vitro, sequencing
Hi all, reminder that labels come from self-cleavage, split as lower bin (below 0.2), middle bin (0.2 to below 0.5), upper bin (0.5 or more)

query_sequence="UAACAGGGGGCCACAGCAGAAGCGUUCACGUCGCAGCCCCUGUCAGAUUCUGGUGAAUACGCGAAUUCUGCUGUAUAUCUC [C59A U60C]" class_name="lower bin"
query_sequence="UAACAGGGGGCCACUGCAGAAGCGUUCACGUCACAGCCCCUGUCAGAUUCUGGUGAAUCUGCGAAUUCUGCUGUAUAUCUC [A15U G33A]" class_name="lower bin"
query_sequence="UAACAGGGGGCCACAGCAGAAGCGUUCACGUCGCAGCCCCUGUCAGAUUAUGGAGAAUCUGCGAAUUCUGCUGUAUAUCUC [C50A U54A]" class_name="upper bin"
query_sequence="UAACAGGGGGCCACAGCAGAAGCGUUCACGUCGCAGCCCCUGUCAGACUCUGGUGAAUCUGCGAAUUAUGCUGUAUAUCUC [U48C C68A]" class_name="middle bin"
query_sequence="UAGCAGGGGGCCACAGCAGAAGCGUUCACGUCGCAGCCCCUGUCAGAUUCUGGUGAAUCUGCGAAUUCUGCUGUAUAUCAC [A3G U80A]" class_name="upper bin"
query_sequence="UAACAGGGGGCCACAGCAGAAGCGCUCACGUCGCAGCCCCUGUCAGAUUCUGAUGAAUCUGCGAAUUCUGCUGUAUAUCUC [U25C G53A]" class_name="middle bin"
query_sequence="UAACAGGGGGCCACAGCAGAAGCGUUCACGUCGCAGCCCCUGUCAGAUUCUGGUGAAUCUGCGAAUUCUGCCGUUUAUCUC [U72C A75U]" class_name="upper bin"
query_sequence="UAACAGGGGGCCACAGCAGAGGCGUACACGUCGCAGCCCCUGUCAGAUUCUGGUGAAUCUGCGAAUUCUGCUGUAUAUCUC [A21G U26A]" class_name="upper bin"
query_sequence="UAACAGGGGGCCACAGCAGAAGCGUUCACGUCGCAGCCCCUGUCAGAUUCUGGUGAAUCUGCGAAUCCUGCUGUAUAGCUC [U67C U78G]" class_name="lower bin"
query_sequence="UAACAGGGGGCCACAGCAGAAGCGUUCGCGUCGCAGCCCCUGUCAGAUUCUGGUGAAUCUGCGAAUUCUGUUGUAUAUCUC [A28G C71U]" class_name="lower bin"
query_sequence="UAACAGGGGGCCACAGCAGAAGCGUUCACGACGCAGCCCCUGUCAGAUUCAGGUGAAUCUGCGAAUUCUGCUGUAUAUCUC [U31A U51A]" class_name="upper bin"
query_sequence="UAACAGGGGGCCUCAGCAGAAGCGUUCACGUCGCAGCCCCUGUCUGAUUCUGGUGAAUCUGCGAAUUCUGCUGUAUAUCUC [A13U A45U]" class_name="upper bin"
query_sequence="UAACAGGGGGCCACAGCGGAAGCGUUCACGUCGCAGCCCCUGUCAGAUUCUGGUGAAUCUGGGAAUUCUGCUGUAUAUCUC [A18G C62G]" class_name="lower bin"
query_sequence="UAACAGGGGGCCCCAGCAGAAGCGUUCACGUCGCAGCCCCUGUCAGAUUCUGGUGAAUCUGCGAAUUCUGCUCUAUAUCUC [A13C G73C]" class_name="middle bin"
query_sequence="UAACAGGGGGCCACAGCAGAAGCGUUCACGUCGCAGCCCCUGUCAGAUUCUGGUGCACCUGCGAAUUCUGCUGUAUAUCUC [A56C U58C]" class_name="lower bin"
